As shown below, each of these molecules has a reported inhibition value.
# STUDY TARGET: Serine/threonine-protein kinase Nek2 (Homo sapiens) (UniProt P51955)
# Sequence (whole entry): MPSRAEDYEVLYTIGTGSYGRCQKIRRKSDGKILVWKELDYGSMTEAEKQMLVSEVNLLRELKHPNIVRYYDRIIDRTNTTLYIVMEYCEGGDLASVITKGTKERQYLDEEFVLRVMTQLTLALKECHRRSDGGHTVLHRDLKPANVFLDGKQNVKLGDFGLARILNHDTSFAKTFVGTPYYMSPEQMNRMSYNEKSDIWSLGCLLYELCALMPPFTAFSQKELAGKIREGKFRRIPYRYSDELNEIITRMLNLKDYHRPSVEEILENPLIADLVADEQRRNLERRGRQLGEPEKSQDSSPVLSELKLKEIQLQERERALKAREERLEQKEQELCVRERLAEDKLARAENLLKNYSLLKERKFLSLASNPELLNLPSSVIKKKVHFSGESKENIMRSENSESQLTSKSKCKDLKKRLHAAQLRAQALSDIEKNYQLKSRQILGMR
# TEST SETTINGS: at 1 µM
Write the number in % without appending the unit.

Problem: Hi! What's the reported inhibition for c1ccc(Oc2ccc(Nc3ncc(-c4ccccc4)o3)cc2)cc1 on Serine/threonine-protein kinase Nek2 (Homo sapiens) (UniProt P51955)?
Solution: 1.51

Problem: Then this molecule: COc1cc(C)c(N(C)C(=O)CN(C)C)cc1Nc1nc(Nc2cccc(F)c2C(N)=O)c2cc[nH]c2n1
Solution: 3.64

Problem: Now consider COc1cc2ncn(-c3cc(OCc4ccccc4C(F)(F)F)c(C(C)=O)s3)c2cc1OC and answer again.
Solution: 4.69

Next:
Problem: GET /values?readout=inhibition&system=Serine/threonine-protein kinase Nek2 (Homo sapiens) (UniProt P51955)&item= Fc1ccc(-c2ncn(CCCN3CCOCC3)c2-c2ccncc2)cc1;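 further: reported values are mean percent inhibition of NEK2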
Solution: -0.45

Problem: And NS(=O)(=O)c1ccc(Nc2cc(-c3ccc(O)c(F)c3)n[nH]2)cc1 ?
Solution: -3.05

Problem: Follow-up item: O=C(Nc1ccc(Oc2ccc3[nH]c(NC(=O)c4ccccc4)nc3c2)cc1)Nc1cc(C(F)(F)F)ccc1F
Solution: 3.11

---

# STUDY TARGET: Serine/threonine-protein kinase MARK1 (Homo sapiens)
# TEST SETTINGS: at 0.1 µM
# Description: GSK_PKIS: MARK1 mean inhibition at 0.1 uM [Nanosyn]
Attribute: inhibition
Write down the numeric answer in % and omit the unit.

Problem: // query inhibition value for entry COc1cc(Nc2ncc3c(C)nc(-c4cccc(C(F)(F)F)c4)n3n2)cc(OC)c1OC
Solution: 2.7

Problem: // repeat for Fc1ccc(-c2c(-c3ccncc3)nc3n2CCS3)cc1 and report
Solution: 2.07

Problem: Could you do the same for CN(C)CCCNc1nccc(-c2c(-c3ccc(F)cc3)nn3cc(C(F)(F)F)ccc23)n1 , please?
Solution: 3.37

Next:
Problem: Fill blank: measured inhibition of the compound O=C1NC(=O)C(c2cccc(Cl)c2)=C1Nc1ccc(Cl)c(C(=O)O)c1 is ____.
Solution: 2.35

Problem: Now the same for CCS(=O)(=O)c1ccc(OC)c(Nc2ncc(-c3cccc(-c4ccccc4F)c3)o2)c1
Solution: 1.41

Problem: Here is the next compound: Fc1ccc(-c2ncn(C3CCNCC3)c2-c2ccnc(Oc3ccc(F)c(F)c3)n2)cc1
Solution: 2.93

Problem: Now this one: O=C(Nc1n[nH]c2nc(-c3ccc(O)cc3)c(Br)cc12)C1CC1
Solution: 3.94

Problem: Same again, this time with CNC(=O)c1cncc(/C=C/c2c(C)cccc2C)c1
Solution: 0.88

Problem: Cool, now CCN(CC)Cc1ccc(Nc2nccc(-c3cnn4ncccc34)n2)cc1
Solution: 4.03

Problem: Param item: CS(=O)(=O)CCNCc1cc(-c2cc3c(Nc4ccc(OCc5cccc(F)c5)c(Cl)c4)ncnc3s2)cs1
Solution: -0.03

Problem: Then this compound: c1ccc(Oc2ccc(Nc3ncc(-c4ccccc4)o3)cc2)cc1
Solution: 1.66

Problem: And the next one, O=C(Nc1n[nH]c2cc(-c3cc(F)ccc3F)ccc12)C1CC1 ?
Solution: 2.47

Problem: Param item: N#Cc1ccc(Oc2nccc(-c3c(-c4ccc(F)cc4)ncn3C3CCNCC3)n2)cc1
Solution: 0.23

Problem: Can you handle Fc1ccc(-c2nc3n(c2-c2ccncc2)CCS3)cc1 next?
Solution: 4.51

Problem: And for NC(=O)c1ccc(Oc2nccc(-c3c(-c4ccc(F)cc4)ncn3C3CCNCC3)n2)cc1 ?
Solution: 2.78

Problem: Similarly, CN(C)CCOc1ccc(-c2cc(-c3ccc4c(c3)CCC4=NO)c(-c3ccncc3)o2)cc1 ?
Solution: -2.08

Problem: Now this one: C/C(Nc1ccc(S(N)(=O)=O)cc1)=C1/C(=O)Nc2ccccc21
Solution: 4.3

Problem: Try NS(=O)(=O)c1ccc(Nc2cc(-c3ccc(O)c(F)c3)n[nH]2)cc1 next.
Solution: 0.41

Problem: Then COc1cc2ncn(-c3cc(OCCc4ccccc4)c(C(N)=O)s3)c2cc1OC ?
Solution: 3.11

Problem: Now the same for COc1cccc(-n2cnc3c(N/N=C/c4ccncc4)ncnc32)c1
Solution: 1.01

Problem: And what about the compound NS(=O)(=O)c1ccc(N/N=C2\C(=O)Nc3ccc(C(=O)NCCCn4ccnc4)cc32)cc1 ?
Solution: 5.69

Data provenance: ChEMBL document CHEMBL1961873
